# System Name: hCB1 (Homo sapiens, UniProt P21554)
# Sequence (P21554 whole entry): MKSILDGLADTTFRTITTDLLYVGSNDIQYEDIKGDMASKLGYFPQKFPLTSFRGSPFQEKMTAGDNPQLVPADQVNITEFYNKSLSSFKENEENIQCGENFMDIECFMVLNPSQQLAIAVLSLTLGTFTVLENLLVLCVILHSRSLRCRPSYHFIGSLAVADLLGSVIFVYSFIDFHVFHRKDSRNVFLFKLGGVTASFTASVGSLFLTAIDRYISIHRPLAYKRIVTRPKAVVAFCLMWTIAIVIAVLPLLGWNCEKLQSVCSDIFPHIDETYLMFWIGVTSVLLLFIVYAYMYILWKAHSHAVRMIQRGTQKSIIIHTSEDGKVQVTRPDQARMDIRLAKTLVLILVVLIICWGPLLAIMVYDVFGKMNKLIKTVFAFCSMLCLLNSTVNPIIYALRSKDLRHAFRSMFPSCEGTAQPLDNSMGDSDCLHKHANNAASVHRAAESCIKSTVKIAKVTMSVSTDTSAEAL
# Experiment Summary: bioSensAll ebBRET signaling profiling, hCB1
# Format: cell-based
# Set-up: host or cells: HEK293SL cells, transient PEI transfection
# Applied Conditions: Log [Compound] (M) -8.22186; single replicate values, FigS6a
Property Label: GoB hCB1

CC(=O)C(c1cccs1)N(C)C(=O)c1cc(C)n(-c2cccc(C(F)(F)F)c2)n1 (stereo not shown)    -4.488
COC(=O)[C@@H]1[C@@H]2CCC[C@@H]2CN1C(=O)c1cc(C)n(-c2cccc(Cl)c2)n1 (racemic)    -4.812
Cn1nc(-c2nnc(C(C)(C)Oc3ccc(C(F)(F)F)cc3)o2)c2ccccc2c1=O    6.383
Cc1cc(C(=O)N(C)C(c2ccccc2)c2ccco2)nn1-c1cccc(C(F)(F)F)c1 (stereo not shown)    -2.654

====

# System Name: UniProt P21554
# Experiment Summary: bioSensAll ebBRET signaling profiling, hCB1
# Type: cell-based
# Parameters: host or cells: HEK293SL cells, transient PEI transfection
# Applied Conditions: Log [Compound] (M) -8; single replicate values, FigS6a
Property Label: Gi1 hCB1

Cc1cc(C(=O)N2CC3(CCC3)[C@@H]2[C@@H]2CCCO2)nn1-c1cccc(C(F)(F)F)c1 [‘3386]    0.7057
Cc1cc(C(=O)N2CC3(CCC3)[C@H]2[C@H]2CCCO2)nn1-c1cccc(C(F)(F)F)c1 [‘1651]    1.7386
COC(=O)[C@@H]1[C@@H]2CCC[C@@H]2CN1C(=O)c1cc(C)n(-c2cccc(Cl)c2)n1 (racemic) [‘10010]    3.373
COc1cccc(C(NC(=O)c2cc(C)n(-c3cccc(C(F)(F)F)c3)n2)c2ccco2)c1 (stereo not shown) [‘1087]    2.926
Cc1cc(C(=O)N2CC3(CCC3)[C@H]2[C@@H]2CCCO2)nn1-c1cccc(C(F)(F)F)c1 [‘5490]    4.236
Cc1nc(CC2CC2)oc1-c1nc(Cc2cc3c(cc2Br)OCO3)no1 [‘7019]    2.236
Cn1nc(-c2nnc(C(C)(C)Oc3ccc(Cl)cc3)o2)c2ccccc2c1=O [‘0450]    -3.861
COC(=O)[C@@H]1[C@@H]2CC[C@@H]2CN1C(=O)c1cc(C)n(-c2cccc(C(F)(F)F)c2)n1 [‘6448]    2.093
Cc1cc(C(=O)NC(c2ccccc2)c2ccco2)nn1-c1cccc(C#N)c1 (stereo not shown) [‘12565]    2.772
Cc1cc(C(=O)NC(c2ccco2)c2ccco2)nn1-c1cccc(C(F)(F)F)c1 [‘1090]    20.7318
Brc1cc2c(cc1Cc1noc(-c3cnn(CC4CC4)c3)n1)OCO2 [‘5424]    -8.707
Cc1cc(C(=O)N(C)C(c2ccco2)c2ccco2)nn1-c1cccc(C(F)(F)F)c1 [‘4388]    1.985
Cn1nc(-c2nnc(C(C)(C)Oc3ccc(C(F)(F)F)cc3)o2)c2ccccc2c1=O [‘2153]    0.6052
Cc1cc(C(=O)NC(c2ccccc2)c2ccco2)nn1-c1cccc(C(F)(F)F)c1 (stereo not shown) [‘1081]    6.533
COC(=O)[C@@H]1[C@@H]2CCC[C@@H]2CN1C(=O)c1cc(C)n(-c2cccc(C(F)(F)F)c2)n1 [‘6439]    8.645
Cc1nn(Cc2ccc(Cl)cc2)c(C)c1C(=O)OCC1CSc2ccccc2O1 (stereo not shown) [‘5463]    -2.752
Cc1cc(C(=O)N(C)C(c2ccccc2)c2ccco2)nn1-c1cccc(C(F)(F)F)c1 (stereo not shown) [‘1082]    1.677
COC(=O)C(NC(=O)c1cc(C)n(-c2cccc(C(F)(F)F)c2)n1)c1cccs1 (stereo not shown) [‘60154]    27.0835
Cc1cc(C(=O)N2CC3(CCC3)[C@@H]2[C@H]2CCCO2)nn1-c1cccc(C(F)(F)F)c1 (single isomer, unassigned) [compound 430]    0.5207
Cc1c(C(=O)OCC2CSc3ccccc3O2)cnn1Cc1ccccc1 (stereo not shown) [‘7800]    -2.0396
CC(=O)C(c1cccs1)N(C)C(=O)c1cc(C)n(-c2cccc(C(F)(F)F)c2)n1 (stereo not shown) [‘6829]    4.359
COC(=O)C(NC(=O)c1cc(C)n(-c2cccc(F)c2)n1)c1cccs1 (stereo not shown) [‘51486]    -0.466
